- Test system: mice
- EXPERIMENTAL_DETAILS: Neuropharmacological Assay (SmartCube)
- Format: in vivo
- TEST_CONDITIONS: i.p. 15 min before behavioral test; 3 doses, most efficacious dose(s) presented
MEASURED_QUANTITY: DP: anti-depressant (probability of class match)

[
  {
    "COMPOUND": "CNC[C@H]1OCCn2nc3ccccc3c21.Cl [Compound 2]",
    "TARGET_OR_TEST_SYSTEM": "mice",
    "RESULT": "++++ (50%≦ ++++)"
  },
  {
    "COMPOUND": "Cl.c1ccc2c3n(nc2c1)CCOC3[C@H]1CNCCO1 (stereo partly drawn) [Compound 42]",
    "TARGET_OR_TEST_SYSTEM": "mice",
    "RESULT": "+ (LOQ≦ + <5%)"
  },
  {
    "COMPOUND": "CNCC1OCCn2nc3cnccc3c21.Cl.Cl (stereo not drawn) [Compound 61]",
    "TARGET_OR_TEST_SYSTEM": "mice",
    "RESULT": "++++ (50%≦ ++++)"
  },
  {
    "COMPOUND": "CNC[C@H]1OCCn2nc3ccsc3c21 [Compound 69]",
    "TARGET_OR_TEST_SYSTEM": "mice",
    "RESULT": "++ (5%≦ ++ <25%)"
  }
]

Return reported DP: anti-depressant (probability of class match); argument: CCN(C)CC1OCCn2nc3ccccc3c21.Cl (stereo not drawn) [Compound 28] ++++ (50%≦ ++++)

Return reported DP: anti-depressant (probability of class match); argument: c1ccc2c3n(nc2c1)CCOC3C1CNC1 (stereo not drawn) [Compound 66] ++ (5%≦ ++ <25%)

---

- System: mice
- EXPERIMENTAL_DETAILS: Neuropharmacological Assay (SmartCube)
- Format: in vivo
- TEST_CONDITIONS: i.p. 15 min before behavioral test; 3 doses, most efficacious dose(s) presented
MEASURED_QUANTITY: DP: anti-depressant (probability of class match)

Known results for compounds:
[
  {
    "COMPOUND": "Cl.c1ccc2c3n(nc2c1)CCOC31CCNC1 (stereo not shown)",
    "TARGET_OR_TEST_SYSTEM": "mice",
    "RESULT": "++ (5%≦ ++ <25%)"
  },
  {
    "COMPOUND": "Cl.c1ccc2c3n(nc2c1)CCOC3[C@@H]1COCCN1 (stereo partly shown)",
    "TARGET_OR_TEST_SYSTEM": "mice",
    "RESULT": "+ (LOQ≦ + <5%)"
  },
  {
    "COMPOUND": "CCN(C)CC1OCCCn2nc3ccccc3c21.Cl (stereo not shown)",
    "TARGET_OR_TEST_SYSTEM": "mice",
    "RESULT": "++ (5%≦ ++ <25%)"
  },
  {
    "COMPOUND": "CN(C)C[C@@H]1OCCn2nc3ccccc3c21",
    "TARGET_OR_TEST_SYSTEM": "mice",
    "RESULT": "++ (5%≦ ++ <25%)"
  },
  {
    "COMPOUND": "CN(C)CC1OCCn2nc3cnccc3c21.Cl.Cl (stereo not shown)",
    "TARGET_OR_TEST_SYSTEM": "mice",
    "RESULT": "+ (LOQ≦ + <5%)"
  }
]

Consider the additional compound presented here.
Under mice: DP: anti-depressant (probability of class match) value of Cl.NCC1OCCn2nc3ccc(F)cc3c21 (stereo not shown) ? ++ (5%≦ ++ <25%)
